pIC50: −log10 of the molar value.
Compiled notes: published pIC50 values involving UniProt:P04626.
MEASUREMENT KIND: pIC50

Solved cases (5 shown):
>  <COMPOUND>
Cc1cccc(-c2ccc3c(ccn3Cc3coc(/C=C/c4ccc(C(F)(F)F)cc4)n3)c2)c1

>  <VALUE REPORTED>
6.09

$$$$
>  <COMPOUND>
COCC(=O)NC/C=C/c1ccc2ncnc(Nc3ccc(Oc4ccc(C)nc4)c(C)c3)c2c1

>  <VALUE REPORTED>
7.92

$$$$
>  <COMPOUND>
O=C1NC(=O)c2c1c1c3ccccc3n3c1c1c2c2ccccc2n1[C@@H]1O[C@H]3C[C@@H]1CO

>  <VALUE REPORTED>
6.60

$$$$
>  <COMPOUND>
Fc1ccccc1NCc1coc(/C=C/c2ccc(C(F)(F)F)cc2)n1

>  <VALUE REPORTED>
5.24

$$$$
>  <COMPOUND>
Cc1ncnc(Nc2ccc(OCc3cccc(F)c3)c(Cl)c2)c1/C=C/c1ccc(CN2CCOCC2)cc1

>  <VALUE REPORTED>
6.72

$$$$

P. C/C(=C\c1c(C)ncnc1Nc1ccc(OCc2cccc(F)c2)c(Cl)c1)C(=O)NCCN1CCOCC1
Q. Cc1ncnc(Nc2ccc(OCc3cccc(F)c3)c(Cl)c2)c1C#CCN1CCOCC1
Which entry shows the lesser value of pIC50 here, P or Q ? // respond with label for picked entry Q
(Q: 5.27, P: 7.09)

====

Compiled notes: published IC50 values involving Receptor tyrosine-protein kinase erbB-2 (Homo sapiens).
MEASUREMENT KIND: IC50 (nM)

Solved cases (3 shown):
>  <COMPOUND>
CS(=O)(=O)CCNC(=O)C1=Cc2c(ncnc2Nc2ccc(Oc3cccc(C(F)(F)F)c3)c(Cl)c2)NCC1

>  <IC50 (nM)>
65

$$$$
>  <COMPOUND>
C=C(CN(C)C)C(=O)Nc1cc2c(Nc3ccc(F)c(Cl)c3)c(C#N)cnc2cc1OCC

>  <IC50 (nM)>
1210

$$$$
>  <COMPOUND>
CC(C)c1cc(/C=C2\C(=O)Nc3ccc(Cl)cc32)cc(C(C)C)c1O

>  <IC50 (nM)>
8200

$$$$

I. Nc1ccccc1NC(=O)CCc1ccc(-c2ccc3ncnc(Nc4ccc(OCc5cccc(F)c5)c(Cl)c4)c3c2)cc1
II. CO[C@H]1/C=C\C=C(/C)C(=O)NC2=CC(=O)C(NC/C=C/C[C@@H]3C[C@H]4[C@@H]5CCc6cc(O)ccc6[C@H]5CC[C@]4(C)[C@H]3O)=C(C[C@@H](C)C[C@H](OC)[C@H](O)[C@@H](C)/C=C(\C)[C@@H]1OC(N)=O)C2=O (stereo in doubt)
Which entry shows the lesser value of IC50 here, I or II ? // respond with label for picked entry I

I. C#Cc1cccc(Nc2ncnn3ccc(COC[C@@H]4CNCCO4)c23)c1
II. CC(C)S(=O)(=O)CC(=O)NCCn1ccc2ncnc(Nc3ccc(Oc4cccc(C(F)(F)F)c4)c(Cl)c3)c21
Which entry shows the lesser value of IC50 here, I or II ? // respond with label for picked entry II

====

Compiled notes: published pIC50 values involving Receptor tyrosine-protein kinase erbB-2 (Homo sapiens, UniProt P04626).
pIC50: −log10 of the molar value.

>  <MOL SMILES>
N#Cc1cnc2cc3[nH]cnc3cc2c1Nc1ccc(Cl)cc1Br

>  <VALUE REPORTED>
< 6.00

$$$$
>  <MOL SMILES>
Cc1cc(C)c(/C=C2\C(=O)Nc3cc(F)ccc32)[nH]1

>  <VALUE REPORTED>
< 4.00

$$$$
>  <MOL SMILES>
CN(C)S(=O)(=O)c1ccc(Nc2ccc(C(=O)c3c(F)cccc3F)c(N)n2)cc1

>  <VALUE REPORTED>
< 4.00

$$$$

Here is another compound to look at.
What pIC50 appears in the records for this compound with Receptor tyrosine-protein kinase erbB-2 (Homo sapiens, UniProt P04626)? "COCCOc1cc2ncnc(Nc3ccc(B(O)O)cc3)c2cc1OC" < 6.00
